# T/C values compiled below
test system: BDF1 mice, B16 melanoma ip, median survival T/C; test: NCI In Vivo Anticancer Drug Screen. Data for tumor model B16 Melanoma (intraperitoneal) in B6D2F1 (BDF1) mice; conditions: endpoint: median survival time; dose: 12.5 mg/kg/injection; schedule: Q01DX009 (ip); vehicle: saline; higher = longer survival
Inconclusive results and toxic doses are left out.

Here's what some known entries look like.
compound | tested system | T/C
COC(=O)C1=CCCN(C)C1 | BDF1 mice, B16 melanoma ip, median survival T/C | 100 % of control
Cc1ccc(Oc2ccc3cc[n+](C)cc3c2)cc1 | BDF1 mice, B16 melanoma ip, median survival T/C | 100 % of control
O=P1(NCCCl)OCCCN1CCCl (stereo unspecified) | BDF1 mice, B16 melanoma ip, median survival T/C | 109 % of control
OCC1OC(n2cnc3c(Cl)ncnc32)C(O)C1O (stereo unspecified) | BDF1 mice, B16 melanoma ip, median survival T/C | 123 % of control
O=[N+]([O-])c1ccc2scc3c4ccccc4nc-3c2c1 | BDF1 mice, B16 melanoma ip, median survival T/C | 99 % of control

Recall the reported T/C of Cc1cc2c3ccccc3ccc2[n+]2ccccc12 when tested on BDF1 mice, B16 melanoma ip, median survival T/C. 93 % of control

###

tested on: BDF1 mice, B16 melanoma ip, median survival T/C; test: NCI In Vivo Anticancer Drug Screen. Data for tumor model B16 Melanoma (intraperitoneal) in B6D2F1 (BDF1) mice; settings: endpoint: median survival time; dose: 50.0 mg/kg/injection; schedule: Q01DX009 (ip); vehicle: Klucel (hydroxypropylcellulose) (HPC); higher = longer survival
Inconclusive results and toxic doses are left out.
reported endpoint: T/C

Here's what some known entries look like.
entry smiles | T/C
CNC(=O)Nc1ccc(C(=O)NC(C)C)cc1 | 97 % of control
[Cl][Pt+2][Cl].[NH-]C1CCCCC1.[NH-]C1CCCCC1 | 97 % of control
N/C(=N\N=C\c1ccc(-c2ccccc2)cc1)N[N+](=O)[O-] | 90 % of control
Clc1ccc(NC2=NCCCS2)c2ccccc12 | 92 % of control
CCN(CC)CCCCCOC(=O)c1ccccc1 | 112 % of control

Recall the reported T/C of C=Cc1c(C)c2cc3[nH]c(cc4nc(cc5nc(cc1[nH]2)C(C)=C5CCC(=O)O)C(CCC(=O)O)=C4C)c(C)c3C=C when tested on BDF1 mice, B16 melanoma ip, median survival T/C. 101 % of control

Recall the reported T/C of FC(F)(F)c1ccc(Cl)c(NC2=NCCCS2)c1 when tested on BDF1 mice, B16 melanoma ip, median survival T/C. 96 % of control

Recall the reported T/C of O=C(Nc1cccc(C(F)(F)F)c1)c1cccc(C(=O)Nc2cccc(C(F)(F)F)c2)c1 when tested on BDF1 mice, B16 melanoma ip, median survival T/C. 108 % of control

###

system: BDF1 mice, B16 melanoma ip, median survival T/C; assay: NCI In Vivo Anticancer Drug Screen. Data for tumor model B16 Melanoma (intraperitoneal) in B6D2F1 (BDF1) mice; conditions: endpoint: median survival time; dose: 25.0 mg/kg/injection; schedule: Q01DX009 (ip); vehicle: Klucel (hydroxypropylcellulose) (HPC)
Toxic doses and inconclusive results are not listed. How the source made its calls: active means survival T/C of 150% or more; inactive means T/C below 125% in these data.
Classes to choose from: active, inactive

Study these solved cases before continuing.
molecule | group
CC(=O)NC(C=O)C(O)C(O)C(O)C(=O)O (configuration not stated) | inactive
Nc1nc([Se])c2ncn(C3CC(O)C(CO)O3)c2n1 (configuration not stated) | inactive
COC(=O)[C@@H]1[C@H](O)[C@H](C)[C@H](O)[C@@](C)(O)/C=C\C=C(C)C(=O)Nc2c(C)c(OC(C)=O)c3c(c2O)C(=O)C(C)=C2OCOC(=C23)C(C)=C[C@@](C)(O)[C@H](O)[C@@H](C)[C@H]1OC(C)=O | inactive

Each molecule tested received a call. Report the one for Cc1ccc(S(=O)(=O)N=N/C=C2/C=CC=CN2O)cc1 . inactive

Each molecule tested received a call. Report the one for O=C1NC(c2ccccc2)(c2ccccc2)C(=O)N1CCN(CCCl)CCCl . inactive

Each molecule tested received a call. Report the one for Cc1ccccc1N1C(=O)CSC1=S . inactive

###

# T/C values compiled below
Tested on: BDF1 mice, B16 melanoma ip, median survival T/C
Test: NCI In Vivo Anticancer Drug Screen. Data for tumor model B16 Melanoma (intraperitoneal) in B6D2F1 (BDF1) mice
Settings: endpoint: median survival time; dose: 25.0 mg/kg/injection; schedule: Q01DX009 (ip); vehicle: Klucel (hydroxypropylcellulose) (HPC); higher = longer survival
Method: The antitumor activity of compounds was measured in mice bearing transplantable tumors. Survival or tumor size were measured and the results are expressed as the measurement made in the treated group (T) divided by the measurement made in the vehicle treated control group (C). The tumor model used in this assay is B16 Melanoma (intraperitoneal) in B6D2F1 (BDF1) mice
Toxic doses and inconclusive results are not listed.

Here's what some known entries look like.
molecule | reported endpoint | result
CNC(=O)Nc1ccc(C(=O)NC(C)C)cc1 | T/C | 98 % of control
CCN(CC)CCCC(C)Nc1ccnc(/C=C/c2ccc(Cl)cc2)c1 (stereo not drawn) | T/C | 92 % of control

Identify T/C associated with the molecule CCO/C([O-])=C/[P+](c1ccccc1)(c1ccccc1)c1ccccc1 103 % of control

###

tested on: BDF1 mice, B16 melanoma ip, median survival T/C; assay: NCI In Vivo Anticancer Drug Screen. Data for tumor model B16 Melanoma (intraperitoneal) in B6D2F1 (BDF1) mice; conditions: endpoint: median survival time; dose: 200.0 mg/kg/injection; schedule: Q01DX009 (ip); vehicle: saline with Tween-80; higher = longer survival
Toxic doses and inconclusive results are not listed. Square brackets hold non-standard residues; d marks the D form. Peptide text beside a SMILES is read from it. * marks the point of attachment. ξ: configuration not given here. ξF = NC(Cc1ccccc1)C(=O)O; Cbz = O=C(OCc1ccccc1)*; Sar = CNCC(=O)O
reported endpoint: T/C

molecule | T/C
CN=S(=O)(OCCCCCOS(=O)(=NC)c1ccc(C)cc1)c1ccc(C)cc1 (configuration not stated) | 106 % of control
CS(=O)(=O)OCC(=O)NCC(O)CNC(=O)COS(C)(=O)=O | 115 % of control
CCCC(C(=O)O)c1ccccc1C (configuration not stated) | 99 % of control
CCCCC(SC(CC)(C(N)=O)c1ccccc1)C(=O)O (configuration not stated) | 92 % of control
NC(N)=NC(N)=Nc1ccc(S(=O)(=O)O)cc1 | 104 % of control
COC1(OC)C2C=CC1CC2 | 90 % of control
Cc1cc(Cl)ccc1NC(=O)CCl | 95 % of control
CCCCNC(=O)Nc1ccc(C(=O)OCC(C)C)cc1 | 96 % of control

Identify T/C associated with the molecule Cc1cc(=O)[nH]c(N/N=C/c2ccc(N(C)C)cc2)n1 95 % of control

Identify T/C associated with the molecule ClCCN=Cc1ccc(Cl)cc1 95 % of control

Identify T/C associated with the molecule Cc1ccc(Cl)cc1NS(=O)(=O)c1ccccc1 95 % of control

Identify T/C associated with the molecule Oc1ccc2ccccc2c1Cc1c(O)ccc2ccccc12 90 % of control

Identify T/C associated with the molecule O=C1C=C(c2ccccc2)C(O)(c2ccccc2)C1 (configuration not stated) 88 % of control

Identify T/C associated with the molecule N#CCCSC(=S)C1CCCC1=N (configuration not stated) 108 % of control

Identify T/C associated with the molecule CN(CC(=O)NC(Cc1ccccc1)C(=O)O)C(=O)OCc1ccccc1 (configuration not stated) (Cbz-[Sar]-[ξF]-OH) 103 % of control

Identify T/C associated with the molecule Cc1c([N+](=O)[O-])cc2c(c1[N+](=O)[O-])C(C)(C)CC2(C)C 86 % of control

Identify T/C associated with the molecule COc1ccc(NC(=O)Nc2ccccc2OC)cc1 115 % of control

###

test system: BDF1 mice, B16 melanoma ip, median survival T/C; test: NCI In Vivo Anticancer Drug Screen. Data for tumor model B16 Melanoma (intraperitoneal) in B6D2F1 (BDF1) mice; conditions: endpoint: median survival time; dose: 12.5 mg/kg/injection; schedule: Q01DX009 (ip); vehicle: Klucel (hydroxypropylcellulose) (HPC); higher = longer survival
Toxic doses and inconclusive results are not listed.
# T/C values compiled below

Here's what some known entries look like.
molecule | reported endpoint | result
C[Se]c1ncnc2c1c(C#N)cn2C1OC(CO)C(O)C1O (stereo not drawn) | T/C | 97 % of control
CC(=O)O[C@@H]1CO[C@H]2O[C@H]3[C@@H](C(C=O)=C[C@H](O)[C@@H]4C5=C(C(C)C)CC[C@]5(C)CC[C@@]34C)[C@@]2(O)C1=O | T/C | 86 % of control
Oc1ccc2ccccc2c1C1=NNc2n[nH]c(=S)n2N1 | T/C | 100 % of control
CSCCC(NC(=O)c1ccccc1)C(=O)O (stereo not drawn) | T/C | 89 % of control

Identify T/C associated with the molecule Cc1ccc(S(=O)(=O)N/N=C/c2ccccc2Cl)cc1 91 % of control

Identify T/C associated with the molecule O=C(NC(Cc1ccccc1)C(=O)CCl)OCc1ccccc1 (stereo not drawn) 100 % of control

Identify T/C associated with the molecule CCCCCCC(C)NCC(O)COc1cccc(C)c1 (stereo not drawn) 89 % of control

Identify T/C associated with the molecule CC1(C)N=C(N)N=C(N)N1c1cc(Cl)c(Cl)cc1Cl 94 % of control

Identify T/C associated with the molecule COc1ccc2nc3cc(Cl)ccc3c(NCCNCCNCCNc3c4ccc(Cl)cc4nc4ccc(OC)cc34)c2c1 113 % of control

Identify T/C associated with the molecule COc1cc2cc[n+](C)c(Cc3ccccc3)c2cc1OC 102 % of control

Identify T/C associated with the molecule CCOC(=O)/C(C(C)=O)=C(/O)c1ccc(OC(F)(F)C(F)Cl)cc1OC(F)(F)C(F)Cl.CCOC(=O)/C(C(C)=O)=C(/O)c1ccc(OC(F)(F)C(F)Cl)cc1OC(F)(F)C(F)Cl.[Cu] (stereo not drawn) 89 % of control

Identify T/C associated with the molecule COc1ccccc1N1C(=O)CSC1=S 95 % of control

Identify T/C associated with the molecule CNCc1ccccc1C(O)c1ccc(Cl)cc1 (stereo not drawn) 100 % of control

Origin of measurements: PubChem BioAssay AID192
